Attribution: the supplement of paper PMC11451515

Test system: NOMO1
ASSAY_TEXT: cell viability relative to DMSO control; higher = less cytotoxic
ASSAY_CONTEXT: RPMI 5 mM glucose + 10% dialyzed FBS; 48 h; 1.71 µM
REPORTED_ENDPOINT: cell viability (%)
Numbers only here, please. The scale is %.

compound=O=[N+]([O-])c1ccc(Nc2ccccc2-c2ccccc2)c2nonc12 reported_value=96.1
compound=CCc1c(O)cc(O)c(C(=O)c2ccc(OCCN3CCOCC3)c(OC)c2)c1CC(=O)N(CCOC)CCOC reported_value=98.8
compound="O=P1(N(CCCl)CCCl)NCCCO1 (stereo not given)" reported_value=110
compound=Cc1cccc(N(C)C(=S)Oc2ccc3ccccc3c2)c1 reported_value=110

Here is the next item to consider.
Item "O=[S+]([O-])(O)c1ccc2cc(/N=N/c3cc([S+](=O)([O-])O)c4cccnc4c3O)ccc2c1" with NOMO1 - cell viability?
119

---

Tested on: P12-Ichikawa
ASSAY_TEXT: cell viability relative to DMSO control; higher = less cytotoxic
ASSAY_CONTEXT: RPMI 5 mM glucose + 10% dialyzed FBS; 48 h; 15.4 µM
REPORTED_ENDPOINT: cell viability (%)
Report as a plain number; the unit % is understood.

Solved entries:
compound=O=[S+]([O-])(O)c1ccc2cc(/N=N/c3cc([S+](=O)([O-])O)c4cccnc4c3O)ccc2c1 reported_endpoint="cell viability" unit_symbol=% reported_value=101
compound="COCCCOc1ccnc(C[S+]([O-])c2nc3ccccc3[nH]2)c1C (stereo not drawn)" reported_endpoint="cell viability" unit_symbol=% reported_value=123
compound=CO[C@H]1/C=C/O[C@@]2(C)Oc3c(C)c(O)c4c(O)c(c(/C=N/N5CCN(C)CC5)c(O)c4c3C2=O)NC(=O)/C(C)=C\C=C\[C@H](C)[C@H](O)[C@@H](C)[C@@H](O)[C@@H](C)[C@H](OC(C)=O)[C@@H]1C reported_endpoint="cell viability" unit_symbol=% reported_value=82
compound=OC1=CC2=C(C(=O)\C=C(/O2)C3=CC=CC=C3)C(=C1O)O reported_endpoint="cell viability" unit_symbol=% reported_value=23.7
compound="CC(C[N+](C)(C)C)OC(N)=O (stereo not drawn)" reported_endpoint="cell viability" unit_symbol=% reported_value=109
compound=CCNC(=O)Nc1ccc(-c2nc3c(c(N4CCOC[C@@H]4C)n2)CCN(C2COC2)C3)cc1 reported_endpoint="cell viability" unit_symbol=% reported_value=39.9

API: value(readout=cell viability, system=P12-Ichikawa) for record "CCOc1cc(/C=C2/C(=O)N(c3ccccc3)N=C2C)cc(Cl)c1OCC(=O)OC"
90.7

Provide the documented cell viability with P12-Ichikawa as the system for "N#CC1(c2ccc(NC(=O)c3cccnc3NCc3ccncc3)cc2)CCCC1"
96.3

---

Test system: P12-Ichikawa
ASSAY_TEXT: cell viability relative to DMSO control; higher = less cytotoxic
ASSAY_CONTEXT: RPMI 5 mM glucose + 10% dialyzed FBS; 48 h; 0.000781 µM
// values below are reported cell viability
Quick reminder: number only, in %, skip the unit.

compound=CCCCOc1ccc(CC(=O)NO)cc1 reported_endpoint="cell viability" reported_value=114
compound=O=C(c1ccc(/C=C/c2n[nH]c3ccccc23)cc1)N1CCNCC1 reported_endpoint="cell viability" reported_value=91.2
compound="C=C[C@H]1CN2CCC1C[C@@H]2[C@@H](O)c1ccnc2ccccc12 (some centres undefined)" reported_endpoint="cell viability" reported_value=101

Shift focus to the following entry.
Quick check: cell viability of "C[N]1N=CC2=C1C=C(C(=C2)OC3=CC=C(NC(=O)\C4=C\C=C(\C)N(C4=O)C5=CC=C(F)C=C5)C=C3F)C6=C[NH]N=C6" ?
119
